FYI, the data here is from the supplement of paper PMC10567573.

B1: FCHSD1 (parent)
chain: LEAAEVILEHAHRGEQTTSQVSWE

variants of: B1; assay: protein stability index of a GFP-peptide fusion (GPS, HEK-293T) (PSI 1-6); higher = more stable; conditions: c terminus: a fixed tail appended;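 note: lentivirally expressed fusions sorted by FACS into six bins by GFP to DsRed ratio, PSI derived from sequencing read proportions per bin multiplied by bin number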
assay_endpoint: protein stability index
Answers are plain numbers.

Example entries begin here.
LEAAEVILEHANRGEQTTSQVSWE [H12N] = 4.55
LMAAEVILEHAHRGEQTTSQVSWE [E2M] = 3.79
LEAAEVILEHAHRGEPTTSQVSWE [Q16P] = 4.05

For each of the variants below, state protein stability index.
1. LEAAEVILEHAHRGDQTTSQVSWE [E15D]
2. LEAAEHILEHAHRGEQTTSQVSWE [V6H]
3. LEAAEVILEHATRGEQTTSQVSWE [H12T]
4. LEAAFVILEHAHRGEQTTSQVSWE [E5F]
5. LPAAEVILEHAHRGEQTTSQVSWE [E2P]
6. LEAAEVILEHAHRGEQTISQVSWE [T18I]

A.
1. 4.22
2. 4.7
3. 4.11
4. 2.29
5. 4.32
6. 3.65

For each of the variants below, state protein stability index.
1. LEAAEVILEHLHRGEQTTSQVSWE [A11L]
2. LEAAEPILEHAHRGEQTTSQVSWE [V6P]
3. LAAAEVILEHAHRGEQTTSQVSWE [E2A]
4. LEAAEVILEHAHRGEQTTSQMSWE [V21M]
5. LEAATVILEHAHRGEQTTSQVSWE [E5T]
6. LEAAEVILEHAHRGEQTTSQVSEE [W23E]

A.
[4.77, 5.66, 3.94, 4.32, 4.38, 5.79]
